Tested on: HepG2
Assay: cell viability relative to DMSO; higher = less toxic
Details: 72 h; 10000 nM
The following molecules are listed with their measured cell viability values.
Field: numeric (%). Do not append units.

# count of solved cases: 3
CC#CCOC(=O)c1c(C)nc2sc3c(c2c1N)CCC(O)C3 (stereo not drawn); 91.4
COC(=O)C1=C(C)NC(C)=C(C(=O)OC/C=C/c2ccccc2)C1c1cccc([N+](=O)[O-])c1 (stereo not drawn); 95.1
CCc1nc2c(C)nc(C)cc2n1-c1ccc(CCNC(=O)NS(=O)(=O)c2ccc(C)cc2)cc1; 97.6

-- ask Given the molecule OC[C@H]1O[C@@H](Oc2ccc(O)cc2)[C@H](O)[C@@H](O)[C@@H]1O , write its reported cell viability.
-- reply 103

-- ask Given the molecule CN(C)C(=O)Oc1cc(OC(=O)N(C)C)cc(C(O)CNC(C)(C)C)c1 (stereo not drawn) , write its reported cell viability.
-- reply 95.6

-- ask Given the molecule CN1CCC(=C2c3ccccc3C=Cc3ccccc32)CC1 , write its reported cell viability.
-- reply 86.6

-- ask Given the molecule CC1(C)Cc2c(-c3ccccc3)c(-c3ccc(Cl)cc3)c(CC(=O)O)n2C1 , write its reported cell viability.
-- reply 93.1

-- ask Given the molecule Fc1cc(F)c2c(c1)[C@H]1C=CC[C@H]1C(c1cccnc1)N2 (stereo partly drawn) [Golgicide A] , write its reported cell viability.
-- reply 10.9

-- ask Given the molecule CN1CCC(NC(=O)c2cc(-c3c(O)cc(O)cc3Oc3ccc([N+](=O)[O-])cc3)on2)CC1 , write its reported cell viability.
-- reply 0.9

-- ask Given the molecule C[C@]12C/C(=C/O)C(=O)C[C@@H]1CC[C@@H]1[C@@H]2CC[C@@]2(C)[C@H]1CC[C@]2(C)O , write its reported cell viability.
-- reply 96

-- ask Given the molecule N[C@H](Cc1cc(I)c(Oc2ccc(O)c(I)c2)c(I)c1)C(=O)O [liothyronine-(isomer)] , write its reported cell viability.
-- reply 105

###

Tested on: HepG2
Assay: cell viability relative to DMSO; higher = less toxic
Details: 72 h; 100 nM
Metric: cell viability (%)
Field: numeric (%). Do not append units.

-- ask Given the molecule Oc1c(Cl)cc(Cl)c(Cl)c1Cc1c(O)c(Cl)cc(Cl)c1Cl , write its reported cell viability.
-- reply 94

-- ask Given the molecule CC(C)(C)NC(=O)[C@@H](c1cccnc1)N(C(=O)c1ccco1)c1ccc(C(C)(C)C)cc1 , write its reported cell viability.
-- reply 92.1

-- ask Given the molecule CC(C)(C)c1[nH]cnc1/C=c1\[nH]c(=O)/c(=C/c2ccccc2)[nH]c1=O , write its reported cell viability.
-- reply 50.1

-- ask Given the molecule CS(=O)(=O)c1ccc(-c2nnc(/C=C/c3nnc(-c4ccc(C#N)cc4)o3)n2-c2ccccc2Cl)nc1 , write its reported cell viability.
-- reply 101

-- ask Given the molecule O=C(O[C@H]1C[N+]2(CCCOc3ccccc3)CCC1CC2)C(O)(c1cccs1)c1cccs1 , write its reported cell viability.
-- reply 91.8

###

Test system: Caco-2
Assay: cell viability relative to DMSO; higher = less toxic
Conditions: 72 h; 10 nM
Metric: cell viability (%)
Field: numeric (%). Do not append units.

Cc1ccc2c(c1)Cc1c(C(=O)NN3CCCCC3)nn(-c3ccc(Cl)cc3Cl)c1-2; 102
O=C(OCC(O)CO)c1ccccc1Nc1ccnc2cc(Cl)ccc12 (configuration not stated); 95.9
CC(C)NCC(O)c1cc(O)cc(O)c1 (configuration not stated); 90.8

-- ask Given the compound CC(=O)O[C@H]1C[C@H](O[C@H]2[C@@H](O)C[C@H](O[C@H]3[C@@H](O)C[C@H](O[C@H]4CC[C@@]5(C)[C@H](CC[C@@H]6[C@@H]5C[C@@H](O)[C@]5(C)[C@@H](C7=CC(=O)OC7)CC[C@]65O)C4)O[C@@H]3C)O[C@@H]2C)O[C@H](C)[C@H]1O[C@@H]1O[C@H](CO)[C@@H](O)[C@H](O)[C@H]1O [lanatoside-C] , write its reported cell viability.
-- reply 99

-- ask Given the compound COc1cc(C[C@@H](CO)[C@H](CO)Cc2ccc(O)c(OC)c2)ccc1O [secoisolariciresinol-(-)] , write its reported cell viability.
-- reply 102

-- ask Given the compound COC(=O)C1=C(C)NC(C)=C(C(=O)OC/C=C/c2ccccc2)C1c1cccc([N+](=O)[O-])c1 (configuration not stated) , write its reported cell viability.
-- reply 80

-- ask Given the compound N#CC(c1ccccc1)(c1ccccc1)c1ccccc1Cl , write its reported cell viability.
-- reply 93.2

-- ask Given the compound COc1cc(OC)cc(-c2ccc3c(-c4ccc(F)cc4)n[nH]c3n2)c1 , write its reported cell viability.
-- reply 98.3

###

The following compounds are listed with their measured relative viability EC50 values.
Test system: HepG2
Assay: relative viability EC50 (midpoint between 100% and the lowest measured viability); higher = less toxic
Details: 72 h

# count of solved cases: 9
NC(=O)N1CCC(CC(=O)N2CCC([C@H]3c4ncc(Br)cc4CCc4cc(Cl)cc(Br)c43)CC2)CC1 [lonafarnib]; 1.7 µM
COc1ccc(CC(C)NCC(O)c2ccc(O)c(NC=O)c2)cc1 (stereo not given) [formoterol]; > 10 µM
NC(=O)c1cn(Cc2c(F)cccc2F)nn1 [rufinamide]; > 10 µM
CCc1ccc2c(-c3cccc(Cl)c3)nc(=O)n(CC)c2n1 [YM-976]; > 10 µM
CCOC(=O)CSCCC1NC(C(=O)O)CS1 (stereo not given) [letosteine]; > 10 µM
Nc1ccn([C@H]2C[C@H](O)[C@@H](CO)O2)c(=O)n1 [torcitabine]; > 10 µM
CN1CCC(NC(=O)c2cc(-c3c(O)cc(O)cc3Oc3ccc([N+](=O)[O-])cc3)on2)CC1 [NMS-E973]; 0.108 µM
O=c1c(O)c(-c2ccc(O)cc2O)oc2cc(O)cc(O)c12 [morin]; > 10 µM
CN(C)CCc1ccc(O)cc1 [hordenine]; > 10 µM

-- ask Given the compound C#C[C@]1(O)C=C[C@H]2[C@@H]3CCC4=CC(=O)CC[C@@H]4[C@H]3CC[C@@]21CC [gestodene] , write its reported relative viability EC50.
-- reply > 10 µM

###

Tested on: Calu-3
Assay: cell viability relative to DMSO; higher = less toxic
Conditions: 72 h; 1 nM
Metric: cell viability (%)
Field: numeric (%). Do not append units.

COc1cc(C[C@@H](CO)[C@H](CO)Cc2ccc(O)c(OC)c2)ccc1O [secoisolariciresinol-(-)]; 98.7
Cc1ccc2c(c1)[C@]13CCCC[C@@H]1[C@H](C2)N(C)CC3; 89.1
CC(=O)O[C@H]1C(=O)[C@@]2(C)[C@H]([C@H](OC(=O)c3ccccc3)[C@]3(O)C[C@H](OC(=O)[C@H](O)[C@@H](NC(=O)c4ccccc4)c4ccccc4)C(C)=C1C3(C)C)[C@]1(OC(C)=O)CO[C@@H]1C[C@@H]2O; 97.9
Cc1cc(=O)oc2c(C=O)c(O)ccc12; 102
CC(C)(CC(=O)N1CCCC1)NCC(=O)N1C[C@@H](F)C[C@H]1C#N; 107
O[C@@H](Cc1ccncc1)C(Cl)(Cl)Cl; 98.8
O=C(O)CCCc1ccc(N(CCCl)CCCl)cc1; 93
Cc1nc(Nc2n[nH]c3c2CN(C(=O)N[C@H](CN(C)C)c2ccccc2)C3(C)C)c2sccc2n1; 92.2
Cc1cccc(/C=N/Nc2cc(N3CCOCC3)nc(OCCc3ccccn3)n2)c1; 104
NCC1CC(=O)N(Cc2ccccc2)C1 (stereo not drawn); 99.7

-- ask Given the molecule O=c1[nH]c(=O)c2ccccc2o1 , write its reported cell viability.
-- reply 89.6

-- ask Given the molecule O=C(CCCCCN1C(=O)c2cccc3cccc(c23)C1=O)NO , write its reported cell viability.
-- reply 101

-- ask Given the molecule c1ccc(C(NCc2cccnc2)(c2ccccc2)c2ccccc2)cc1 , write its reported cell viability.
-- reply 96.7

-- ask Given the molecule CN(C)CCc1ccc(O)cc1 , write its reported cell viability.
-- reply 91.9

-- ask Given the molecule CCCC[C@H]1OC(=O)c2ccccc21 [butylphthalide] , write its reported cell viability.
-- reply 103

-- ask Given the molecule C=CCN1CC[C@]23c4c5ccc(O)c4O[C@H]2/C(=N/NC(=O)c2ccccc2)CC[C@@]3(O)[C@H]1C5 [naloxone-benzoylhydrazone] , write its reported cell viability.
-- reply 95.4

-- ask Given the molecule Cn1cc(-c2ccc3c(c2)CCN3C(=O)Cc2cccc(C(F)(F)F)c2)c2c(N)ncnc21 , write its reported cell viability.
-- reply 106

-- ask Given the molecule O=C1C[C@@H](c2ccc(O)cc2)Oc2cc(O)ccc21 , write its reported cell viability.
-- reply 103

###

The following molecules are listed with their measured cell viability values.
Tested on: Caco-2
Test: cell viability relative to DMSO; higher = less toxic
Conditions: 72 h; 100 nM
Field: numeric (%). Do not append units.

CN1CCN(CC(=O)N2c3ccccc3C(=O)Nc3cccnc32)CC1 [pirenzepine]; 99.9
CNC1CCCN(c2c(F)cc3c(=O)c(C(=O)O)cn(C4CC4)c3c2OC)C1 (centres undefined); 98.4
COc1ccc(CC(C)NCC(O)c2ccc(O)c(NC=O)c2)cc1 (centres undefined); 93.4

-- ask Given the molecule COC(=O)C1=C(C)NC(C)=C(C(=O)OC/C=C/c2ccccc2)C1c1cccc([N+](=O)[O-])c1 (centres undefined) , write its reported cell viability.
-- reply 97

-- ask Given the molecule CC(C)(C)c1[nH]cnc1/C=c1\[nH]c(=O)/c(=C/c2ccccc2)[nH]c1=O , write its reported cell viability.
-- reply 68.6

-- ask Given the molecule CN1CCCCC1CCN1c2ccccc2Sc2ccc([S+](C)[O-])cc21 (centres undefined) , write its reported cell viability.
-- reply 90.5

-- ask Given the molecule Nc1ccn([C@H]2C[C@H](O)[C@@H](CO)O2)c(=O)n1 , write its reported cell viability.
-- reply 101

-- ask Given the molecule C=CCC1(CC(C)C)C(=O)NC(=O)NC1=O , write its reported cell viability.
-- reply 80.1
